assay: Plasma pharmacokinetic study; type: in vivo, CD-1 mice; conditions: male, CD-1, mouse, plasma, sc, 40 mg/kg, SC 40 mg/kg
MEASURE: Cmax (ng/mL)
Answer with a number only, understood to be in ng/mL.

I have this molecule here, CC(C)=CCOc1cc(OCCCNC(=N)N)cc2oc3cc(OCCCNC(=N)N)ccc3c(=O)c12 , and I need its recorded Cmax.
8680

###

assay: Plasma pharmacokinetic study; format: in vivo, CD-1 mice; conditions: male, CD-1, mouse, plasma; IV 5 mg/kg, 0.083 hr
MEASURE: concentration at 0.083 h (ng/mL)
Answer with a number only, understood to be in ng/mL.

I have this compound here, CC(C)=CCOc1cc(OCCCNC(=N)N)cc2oc3cc(OCCCNC(=N)N)ccc3c(=O)c12 [XT17] , and I need its recorded concentration at 0.083 h.
20300
